Molecular target: IDH1 R132H (Homo sapiens, UniProt O75874, R132H)
Sequence (O75874 whole entry R132H): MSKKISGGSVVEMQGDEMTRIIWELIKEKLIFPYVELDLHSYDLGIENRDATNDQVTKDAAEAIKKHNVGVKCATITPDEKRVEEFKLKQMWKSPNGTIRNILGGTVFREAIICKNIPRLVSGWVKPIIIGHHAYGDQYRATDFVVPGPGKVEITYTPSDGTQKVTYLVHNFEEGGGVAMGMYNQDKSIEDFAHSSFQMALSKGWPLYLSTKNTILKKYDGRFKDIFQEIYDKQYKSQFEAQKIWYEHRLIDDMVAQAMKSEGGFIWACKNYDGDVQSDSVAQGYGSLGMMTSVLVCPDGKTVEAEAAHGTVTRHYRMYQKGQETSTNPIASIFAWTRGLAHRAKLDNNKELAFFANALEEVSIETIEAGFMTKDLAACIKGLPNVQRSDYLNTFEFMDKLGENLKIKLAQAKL
Assay: Effect on IDH1 R132H enzyme activity (NADPH consumption, diaphorase/resazurin fluorescence)
Details: 100 ng IDH1 R132H, α-KG 1 mM, NADPH 20 μM, 60 min preincubation
Collected IC50 values appear next to each entry.

Examples from the recorded data:
CC1Cc2c([C@H](C)Nc3nccc(N4C(=O)OC[C@@H]4[C@H](C)F)n3)ncn2-c2ccc(C(F)(F)F)cc21 (stereo partly drawn) :: 50 to 500 nM
C[C@H](Nc1nccc(N2C(=O)OC3(COC3)[C@@H]2c2ccccc2)n1)c1ncn2c1CCc1cc(C(F)(F)F)ccc1-2 :: < 50 nM
CC1Oc2cc(C(F)(F)F)ccc2-n2cnc([C@H](C)Nc3nccc(N4C(=O)OC[C@@H]4[C@H](C)F)n3)c21 (stereo partly drawn) :: 50 to 500 nM

input: I would be grateful if you could share the reported IC50 for CC1Cc2cc(C(F)(F)F)ccc2-n2cnc([C@H](C)Nc3nccc(N4C(=O)OC[C@@H]4[C@H](C)F)n3)c21 (stereo partly drawn) .
output: 50 to 500 nM

input: I would be grateful if you could share the reported IC50 for `COc1ccc2c(c1)OCc1c([C@H](C)Nc3nccc(N4C(=O)OC[C@@H]4[C@H](C)F)n3)ncn1-2` .
output: 50 to 500 nM

input: I would be grateful if you could share the reported IC50 for `C[C@H](Nc1nccc(N2C(=O)OC[C@@H]2C2CC2)n1)c1ncn2c1COc1cc(Cl)ccc1-2` .
output: 50 to 500 nM
